system-under-test: T1, TIGIT (Homo sapiens (Human), UniProt Q495A1 22-244)
T1 sequence: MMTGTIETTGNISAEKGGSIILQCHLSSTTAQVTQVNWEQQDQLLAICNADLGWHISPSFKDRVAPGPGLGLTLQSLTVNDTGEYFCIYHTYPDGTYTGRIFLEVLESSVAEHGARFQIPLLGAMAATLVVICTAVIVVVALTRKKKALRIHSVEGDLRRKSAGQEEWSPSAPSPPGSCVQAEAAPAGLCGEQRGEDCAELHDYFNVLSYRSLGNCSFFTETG
assay-details: flow cytometry, Fc fusion at 100 nM, TIGIT-transfected cells
Reported MFI at 100 nM values for the following binders.
Give just the numeric value; MFI need not be written.

Answered cases to consult:
variant CD155 IgV-Fc S42W/S52Q/V57L/Q62Y (Fc fusion, not shown: a dimerising Fc or GST) WPPPGTGDVVVQAPTQVPGFLGDSVTLPCYLQVPNMEVTHVWQLTWARHGEQGSMALFHQTYGPSYSESKRLEFVAARLGAELRNASLRMFGLRVEDEGNYTCLFVTFPQGSRSVDIWLRVL    1960
variant CD155 IgV-Fc S42A/S52L/L104E/G111R (Fc fusion, not shown: a dimerising Fc or GST) WPPPGTGDVVVQAPTQVPGFLGDSVTLPCYLQVPNMEVTHVAQLTWARHGELGSMAVFHQTQGPSYSESKRLEFVAARLGAELRNASLRMFGLRVEDEGNYTCEFVTFPQRSRSVDIWLRVL    2260

Moving on to another binder below.
State the recorded MFI at 100 nM for this entry: variant CD155 IgV-Fc T45Q/S52L/L104E/G111R (Fc fusion, not shown: a dimerising Fc or GST) WPPPGTGDVVVQAPTQVPGFLGDSVTLPCYLQVPNMEVTHVSQLQWARHGELGSMAVFHQTQGPSYSESKRLEFVAARLGAELRNASLRMFGLRVEDEGNYTCEFVTFPQRSRSVDIWLRVL
2290
